# Test system: synthetic peptide consisting of the 28 amino acids (SEQ ID NO: 28)
# Test Summary: Two step reaction of proteinase and fraction 4 on the 28 amino acid synthetic peptide
# Format: biochemical
# Conditions Used: proteinase 0.1 μg/ml on 28-mer 10 μg/ml, pH 6.1, 37° C. 5 hours, heat inactivation, then fraction 4; HPLC
Measured Property: Production of the tripeptides Ile-Pro-Pro and Val-Pro-Pro

# Molecule, Result
measured = [
    ("Subtilisin BPN: proteinase, Bacillus amyloliquefaciens, Sigma Chemical Co. (protein, UniProt P00782 108-382, looked up) Subtilisin BPN': AQSVPYGVSQIKAPALHSQGYTGSNVKVAVIDSGIDSSHPDLKVAGGASMVPSETNPFQDNNSHGTHVAGTVAALNNSIGVLGVAPSASLYAVKVLGADGSGQYSWIINGIEWAIANNMDVINMSLGGPSGSAALKAAVDKAVASGVVVVAAAGNEGTSGSSSTVGYPGKYPSVIAVGAVDSSNQRASFSSVGPELDVMAPGVSIQSTLPGNKYGAYNGTSMASPHVAGAAALILSKHPNWTNTQVRSSLENTTTKLGDSFYYGKGLINVQAAAQ", "No"),
]
